pIC50: −log10 of the molar value.
Compiled notes: published pIC50 values involving Estrogen receptor beta (Homo sapiens).
Given measured pIC50, output T if it is greater than or equal to 7 and F if not.

Look over these answered cases.
> print(dat)
                                   molecule  assigned.category
1  O=[N+]([O-])c1c(O)ccc2cc(-c3ccc(O)cc3)ccc12                  F
2  C[C@]12C=CC(=O)C=C1CC[C@@H]1[C@@H]2[C@@H](O)C[C@@]2(C)[C@H]1CC[C@]2(O)C(=O)CO                  F
3  CCC12CCC(=O)C=C1c1ccc3[nH]ncc3c1C2 (racemic)                  F
4  CC(C)[C@H]1C(=O)c2ccc(O)cc2O[C@@H]1c1ccc(OCCN2CCCCC2)cc1                  F
5   Oc1cc(F)c(-c2ccc3c(Cl)c(O)ccc3c2)c(F)c1                  T

Determine whether this molecule has pIC50 no lower than 7: O=C1c2c(F)cc(O)cc2O[C@H](c2ccc(OCCN3CCCCC3)cc2)[C@@H]1c1ccc(O)cc1
F

Determine whether this molecule has pIC50 no lower than 7: CN(C)CCOc1ccc(Cn2c3ccccc3c3sc4cc(O)ccc4c32)cc1
T

Determine whether this molecule has pIC50 no lower than 7: O=C1c2cc(O)cc(Br)c2C(=O)N1c1ccc(O)cc1
F

###

Compiled notes: published IC50 values involving Estrogen receptor beta (Homo sapiens).
Unit nM implied. Number only.

Example results:
> print(dat)
                                   compound  experimental.readout  endpoint.value
1  O=C(c1ccc(N2CCN(C(=O)c3ccc(Cl)cc3)CC2)cc1)c1c(-c2ccc(O)cc2)sc2cc(O)ccc12                  IC50            4.02
2      Oc1ccc(-c2ccc3c(Cl)c(O)ccc3c2)c(F)c1                  IC50             1.2
3  CCCCC12CCC(=O)C(CCC)=C1c1ccc3[nH]nnc3c1C2 (stereo unspecified)                  IC50              58
4  Oc1ccc2c(c1)sc1c3ccccc3n(Cc3ccc(OCCN4CCOCC4)cc3)c21                  IC50             215
5  COc1ccc2c(c1)OCCC1=C2[C@H](c2ccc(OCCN3CCCCC3)cc2)Oc2cc(O)ccc21                  IC50              24

What reported IC50 corresponds to CN(C)CCOc1ccc([C@@H]2Oc3cc(O)ccc3C3=C2c2ccccc2OCC3)cc1 on Estrogen receptor beta (Homo sapiens)?
30

What reported IC50 corresponds to C[C@@H]1CCN([C@@H](C)COc2ccc([C@@H]3Oc4ccc(O)c(F)c4S[C@@H]3c3ccc(O)cc3)cc2)C1 on Estrogen receptor beta (Homo sapiens)?
5.3

What reported IC50 corresponds to CC[C@@]12CCC(=O)C(Br)=C1c1ccc3[nH]ncc3c1C2 on Estrogen receptor beta (Homo sapiens)?
2.2

What reported IC50 corresponds to CCc1c(-c2ccc(O)cc2)oc(-c2ccc(O)cc2)c1-c1ccc(OCCN2CCCCC2)cc1 on Estrogen receptor beta (Homo sapiens)?
480

What reported IC50 corresponds to O=c1c2c(O)c(I)c(O)cc2ncn1-c1ccc(O)cc1 on Estrogen receptor beta (Homo sapiens)?
3970
